Collected apparent KD of MS2 coat protein values appear next to each entry.
# Tested on: MS2 coat protein
# test.name: apparent KD of MS2 coat protein, switch ON state; designed switch direction (-1 OFF switch, 1 ON switch): -1; higher = weaker reporter binding
# condition.context: FMN input: 0 or 200 uM; Eterna round: R93 (includes R88 designs)
The reply should contain only the number, in nM.

INSERT INTO measurements (sequence, measured_endpoint, meas_value) VALUES
  ('AACAGUACAGGAUAUACAUGAGGAUCACCCAUGUGGGAAAAAAGAUCGAGAGAUCAAUGUAGAAGGGUACUGGA [JL In the Red 03]', 'apparent KD of MS2 coat protein', 161);

// sample AAAACGCUAGGAUAUACGAAAAAAAAGGGAGAAAAAAAGGGACAUGAGGAUCACCCAUGUAGAAGGAGCAAAAA [Diamond 88] , its apparent KD of MS2 coat protein was 38.5

// sample AGAAAACAUGAGGAUCACCCAUGUGAGGAUAUGCAAAUAUAUACGAAAGAUUAUAAAAGCAGAAGGCACAAAAG [Meechl MS2 Ex1] , its apparent KD of MS2 coat protein was 35.8

// sample AAGAAACAUGAGGAUCACCCAUGUGAGGAUAUCUAAAAGAAAAGAAAAGAAAGAAGAAGGAGAAGGCACAAAGG [H—] , its apparent KD of MS2 coat protein was 34.3

----------
# System: K4 kissing-loop RNA reporter;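 further: bound reporter read as fluorescence of individual clusters on recovered sequencing chips by microscopy, with normalized cluster intensities fitted with a binding model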
# test.name: apparent KD of K4 kissing-loop reporter; higher = weaker reporter binding
# condition.context: Eterna round: R107; input ligand: tryptophan 2.4 mM
Collected apparent KD of K4 kissing-loop reporter values appear next to each entry.
The reply should contain only the number, in nM.

Some solved cases for reference:
INSERT INTO results (sequence, measured_endpoint, meas_value) VALUES
  ('GCAGUGAUGUUGCUGGUGUGCAGUGGUAGUCGAGGACCGGUACGGCCGCCACUCGGUGAGAACCUGCUAAUACAUCGAUAAGUGA [XVIII]', 'apparent KD of K4 kissing-loop reporter', 558),
  ('AAGGCCGCGCGGUGAUGUUUCAUCGCCGCCCGAGGACCGGUACGGCCGCCACUCGGAUAUAUCGCAGUGAUGUUGCUCUAUAUCA [Exclusion - Tryptophan A]', 'apparent KD of K4 kissing-loop reporter', 203),
  ('AUCGUUGCCAUUAGGACAUACGGUCCUGAACGAGGACCGGUACGGCCGCCACUCGAGCACACGAGUGAUGUUCGUGGGCAACGAU [Tryp A SS t1]', 'apparent KD of K4 kissing-loop reporter', 358),
  ('CCUAUCUCAUACGAUACCAGUGAAUUUAUAUUUAUUAGCAGUGAUGUUGCAUUCCAAGUACACCCUUGGCAGCGUAUGGGAUAGG [Ex Theophylline B K4 22]', 'apparent KD of K4 kissing-loop reporter', 140);

// sample AAACAACGUGACGAUACCAGCUUACUCGGCAAGCCAGUGAUGUUGGUGAAAAGGAGUCAAAGCCCUUGGCAGCGUCGAAGGUUUG [Leteon] , its apparent KD of K4 kissing-loop reporter was 268

// sample AAGCUCAGCGUGACUCGAUAAGAGUCACAACGAGGACCGGUACGGCCGCCACUCGAAAUAAGAGAGUGAUGUUCUCGCUGAGCAA [#SwitchBubble 6 #StaticStem #K4Late] , its apparent KD of K4 kissing-loop reporter was 548

// sample CUGAGCUGCAGCGAUACCAGUGUGGAGUGAUGUUCCCUGGUCCGGGCUGUUGUUCCCUUGCGCCCUUGGCAGCGCAGGAGCAGGG [Exclusion Theophylline B GF 15] , its apparent KD of K4 kissing-loop reporter was 383

// sample AGUGAUAUAUGAGGAUAUGGGUUUGUUAAAGAGUUAGUUUUAGUGUUGUUUGGUUAGUGAUGUUAUUUAGAAGGCGUGAGUGAUG [foopmullin] , its apparent KD of K4 kissing-loop reporter was 72.9

// sample UUAUAACCCAGUGAUGUUGGGUAGCGGCCACGAGGACCGGUACGGCCGCCACUCGAGGUUUAACCAGUGAUGUUGGACUAUAUAA [Same state Tryptophan A GF 4] , its apparent KD of K4 kissing-loop reporter was 23.7

// sample `UUUACUCCGAGUGAUGUUCGGCGUAUCUGACGAGGACCGGUACGGCCGCCACUCGGUUCGACUACGAAGGCCUUGGCCACAGAUU` , its apparent KD of K4 kissing-loop reporter was 285
